Biological target: High affinity nerve growth factor receptor (Homo sapiens);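 also: each value is a mean of replicate percent inhibition readings against TRKA kinase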
Settings: at 0.1 µM
property measured: inhibition (%)
Response body: numeric value in %, unit text excluded.

CS(=O)(=O)CCNCc1nc(-c2ccc3ncnc(Nc4ccc(F)c(Cl)c4)c3c2)cs1 | 3.85

input: I'd like to know its inhibition. The compound in question is O=C1NC(=O)C(N2CCc3ccccc32)=C1c1ccc(Cl)cc1
output: 4.36

input: Moving on to the next compound: Fc1cccc(COc2ccc(Nc3ncnc4cc(-c5ccc[nH]5)sc34)cc2Cl)c1
output: 2.39

input: Moving on to the next compound: COc1ccc(-c2coc3ncnc(N)c23)cc1
output: 1.6

input: Moving on to the next compound: CCn1c(-c2nonc2N)nc2c(C#CC(C)(C)O)nc(OC[C@@H](N)c3ccccc3)cc21
output: -0.3

input: Moving on to the next compound: COc1ccc(COc2ccc(Cc3cnc(N)nc3N)cc2OC)cc1
output: 32.4

input: Moving on to the next compound: CC(C)=Cc1cccc2c1/C(=N/Nc1ccc(S(N)(=O)=O)cc1)C(=O)N2
output: 6.87

input: Moving on to the next compound: CC(=O)Nc1cccc(C#Cc2cncnc2Nc2ccc(OCc3cccc(F)c3)c(Cl)c2)n1
output: -4.25

input: Moving on to the next compound: CC1=C(C(=O)Nc2ccc3[nH]ncc3c2)C(c2ccc(F)cc2)NC(=O)N1 (configuration not stated)
output: 0.85

input: Moving on to the next compound: CCc1cccc(NC(=O)Nc2ccc(Oc3ccc4nc(NC(=O)OC)[nH]c4c3)cc2)c1
output: 30.8

input: Moving on to the next compound: COc1ccc2cc(-c3c(-c4ccncc4)nc(-c4ccc([S+](C)[O-])cc4)n3C)ccc2c1 (configuration not stated)
output: 2.78

input: Moving on to the next compound: N#Cc1c(NC(=O)c2cccc3ccccc23)sc2c1CCCC2
output: 3.35

Provenance of the data: ChEMBL document CHEMBL1961873
